ASSAY_TARGET: T1, human Abl SH2 domain (human, UniProt P00519 112-232, limits assumed)
T1 construct: domain: SH2 domain; poly-histidine tagged in selection; tag cleaved for SPR and crystals; also called Ab1SH2; SH2 domain of Abl kinase
T1 sequence (looked up): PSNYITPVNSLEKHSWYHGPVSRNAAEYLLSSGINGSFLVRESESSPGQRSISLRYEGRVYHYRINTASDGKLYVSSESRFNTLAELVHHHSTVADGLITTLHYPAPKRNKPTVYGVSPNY
TEST_PROTOCOL: phage display selection hit, BL1 library

{"columns": ["BINDER", "binding result"],
 "data": [
  ["SEQ ID NO 34 (designed binder) VSSVPTKLEVVAATPTSLLISWDAPAVTVHYYVITYGETGWWGPVQEFTVPGSKSTATISGLSPGVDYTITVYAYWKYSYKYSPISINYRT", "binds"],
  ["SEQ ID NO 38 (designed binder) VSSVPTKLEVVAATPTSLLISWDAPAVTVDYYVITYGETGVPYYGWQEFEVPGSKSTATISGLSPGVDYTITVYAYPGSNWFYDWWSPISINYRT", "binds"],
  ["SEQ ID NO 30 (designed binder) VSSVPTKLEVVAATPTSLLISWDAPAVTVDFYFITYGETGGNSPVQEFTVPGSKSTATISGLSPGVDYTITVYAWDNWDDYYYSPISINYRT", "binds"]
]}
